Tested on: MDA-MB-453 cells
Experiment: Resazurin-based cell viability assay, monotherapy drug screen
Design: species or system human; scale not given here
Settings: MDA-MB-453; area under the dose response curve, 24 h
Answer Not satisfied if AUC is under 0.8, and Satisfied if it is 0.8 or more.

• CC(C)C[C@H](NC(=O)[C@H](CCc1ccccc1)NC(=O)CN1CCOCC1)C(=O)N[C@@H](Cc1ccccc1)C(=O)N[C@@H](CC(C)C)C(=O)[C@@]1(C)CO1 [Carfilzomib] = Not satisfied
• COc1cccc2c1C(=O)c1c(O)c3c(c(O)c1C2=O)C[C@@](O)(C(=O)CO)C[C@@H]3O[C@H]1C[C@H](N)[C@H](O)[C@H](C)O1 [Doxorubicin] = Satisfied
• COC[C@H](NC(=O)c1cnc(C)s1)C(=O)N[C@@H](COC)C(=O)N[C@@H](Cc1ccccc1)C(=O)[C@@]1(C)CO1 [Oprozomib] = Satisfied
• CC1=C(O)C(=O)C=C2C1=CC=C1[C@@]2(C)CC[C@@]2(C)[C@@H]3C[C@](C)(C(=O)O)CC[C@]3(C)CC[C@]12C [Celastrol] = Satisfied
• CC(C)C[C@H](NC(=O)[C@H](Cc1ccccc1)NC(=O)c1cnccn1)B(O)O [Bortezomib] = Not satisfied
• CC(=O)O[C@H]1C(=O)[C@@]2(C)[C@H]([C@H](OC(=O)c3ccccc3)[C@]3(O)C[C@H](OC(=O)[C@H](O)[C@@H](NC(=O)c4ccccc4)c4ccccc4)C(C)=C1C3(C)C)[C@]1(OC(C)=O)CO[C@@H]1C[C@@H]2O [Paclitaxel] = Satisfied
• CC[C@H](C)[C@H](NC(=O)[C@H]([C@@H](C)CC)N(C)C(C)=O)C(=O)N[C@H](C(=O)N[C@@H](CC(C)C)C(=O)[C@@]1(C)CO1)[C@@H](C)O [Epoxomicin] = Not satisfied
• COc1cccc2c1C(=O)c1c(O)c3c(c(O)c1C2=O)C[C@@](O)(C(=O)CO)C[C@@H]3O[C@H]1C[C@H](N)[C@@H](O)[C@H](C)O1 [Epirubicin] = Satisfied
• CC(=O)O[C@@]12CO[C@@H]1C[C@H](O)[C@@]1(C)C(=O)[C@H](O)C3=C(C)[C@@H](OC(=O)[C@H](O)[C@@H](NC(=O)OC(C)(C)C)c4ccccc4)C[C@@](O)([C@@H](OC(=O)c4ccccc4)[C@H]21)C3(C)C [Docetaxel] = Satisfied
• N.N.[Cl][Pt][Cl] [Cisplatin] = Not satisfied
• CC(C)C[C@H](NC(=O)CNC(=O)c1cc(Cl)ccc1Cl)B1OC(=O)C(CC(=O)O)(CC(=O)O)O1 [MLN 9708, MLN-9708] = Satisfied
